tested on: human liver microsomes, metabolic stability half-life; experiment: NCATS Human Liver Microsomal (HLM) Stability Profiling; settings: higher = more stable; screened at 1 µM (by protocol)
readoutType: half-life (min)
Answers are plain numbers, in min.

The following molecules have reported results that may help.
CCCCNc1ncc(C(=O)NCc2ccc(-n3ccnc3)cc2)c(NC2CCC(O)CC2)n1 (stereo not given) ... 33
O=C(NCc1ccco1)c1ccc2c(c1)N(Cc1cccc(Cl)c1)C(=O)c1ccccc1S2=O (stereo not given) ... 0.62
Clc1cccc(N2CCNCC2)c1 ... 39.8
CC(C)(CNC(=O)c1cccc(-c2noc(C(F)(F)F)n2)c1)c1coc(-c2ccccc2)n1 ... 33.1
O=C(Nc1ccccc1Br)NC1CCN(c2ccc(C(F)(F)F)cn2)C1 (stereo not given) ... 120
O=c1c(N2CCN(c3cccc(Cl)c3)CC2)csc2ccc(Cl)cc12 ... 12.8
CC1CCN(CC(=O)N2CCCc3c2c(=O)oc2ccc(OCc4ccccc4)cc32)CC1 ... 1.52
C[C@]12CC[C@@H]3c4ccc(O)cc4CC[C@H]3[C@@H]1CCC2=O ... 34.1
CN(C)CC/C=C1\c2ccccc2Sc2ccc(Cl)cc21 ... 24.3

Pending molecule:
Record summary for CCc1nn(CCCN2CCN(c3cccc(Cl)c3)CC2)c(=O)n1CCOc1ccccc1 : reported half-life = 0.98
